assay-target: T1, recombinant human IL-23 (human, UniProt P29460 23-328)
T1 construct: also called Human recombinant IL-23
T1 sequence 1: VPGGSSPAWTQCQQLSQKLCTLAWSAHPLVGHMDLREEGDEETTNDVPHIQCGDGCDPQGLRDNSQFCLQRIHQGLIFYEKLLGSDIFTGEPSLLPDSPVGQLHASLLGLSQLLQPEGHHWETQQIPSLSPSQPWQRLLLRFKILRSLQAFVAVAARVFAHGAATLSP
T1 sequence 2: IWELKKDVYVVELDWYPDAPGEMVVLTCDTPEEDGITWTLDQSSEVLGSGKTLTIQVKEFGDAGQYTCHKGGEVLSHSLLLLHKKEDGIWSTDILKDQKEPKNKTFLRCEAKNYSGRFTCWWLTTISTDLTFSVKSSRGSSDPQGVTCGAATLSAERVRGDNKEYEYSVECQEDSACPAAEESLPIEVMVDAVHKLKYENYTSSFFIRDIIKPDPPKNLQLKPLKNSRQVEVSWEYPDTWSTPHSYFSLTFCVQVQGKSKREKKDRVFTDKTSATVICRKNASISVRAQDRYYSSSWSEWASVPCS
experiment-summary: BLI, Fortebio Octet; hybridoma-derived antibody
Entry flag: t if kon reaches 200000 M⁻¹ s⁻¹; f if it does not.

binder	discrete-label
20E8 (antibody, V domains shown, Mouse monoclonal antibody from hybridoma; also called 20E8vk; 20E8vh) VH: EVQLQQSGPELVKPGASVKMSCKASGYTFTSSVMHWVKQKAGQGLEWIGYINPYNDGTQYNEKFKGKATLTSDKFSSTAYMELSSLTSEDSAVYYCTRRLDEAYWGQGTLVTVSA VL: DIVMTQSPATLSVTPGDRVSLSCRASQSISEYLHWYQQKSHESPRLLIKYASQSISGIPSRFSGSGSGSDFTLSINSVEPEDVGVYYCQNGHSFPFTFGSGTKLEIK	t
22E2 (antibody, V domains shown, Mouse monoclonal antibody from hybridoma; also called 22E2vk; 22E2vh) VH: EVQLQQSGPELVKPGASVKMSCKASGYTFTSSIIHWVKQRPGQGLEWIGYINPYDDVTKYNEKFKGKATLTSDKSSSTAYMELSSLTSEDSAVYYCARRWDESYWGQGTLVTVSA VL: DIVMTQSPATLSVTPGDRVSLSCRASQSISVYLHWYQQKSPESPRLLIKYASQSISGIPSRFSGSGSGSDFTLSINSVEPEDVGVYYCQNGHSFPFTFGSGTKLEIK	t
27G8 (antibody, V domains shown, Mouse monoclonal antibody from hybridoma; also called 27G8vk; 27G8vh) VH: QVQLQQSDAELVKPGASVKISCKVSGYTFTDHTIHWMKQRPEQGLEWIGYIYPRDGYPKFNEKFKGKATLTADKSSSTAYMQLNSLTSEDSAVYFCARRPPYYAMDYWGQGTSVAVSS VL: DIVLTQSPASLAVSLGQRATISCRASKSVSTSGYSYIHWYQQKPGQPPKFLIYLASNLDSGVPARFSGSGSGTDFTLNIHPVEEEDAATYYCQHSRELPYTFGGGTKLEIK	f

(Q) Form field: kon at least 200000 M⁻¹ s⁻¹? Entry: 15C11 (antibody, V domains shown, Mouse monoclonal antibody from hybridoma; also called 15C11vk; 15C11vh) VH: EVQLQQSGPVLVKPGASVKMSCKASGYTFTDYYMNWVKQSHGKSLEWIGVIIPYNGGTSYNQKFKGKATLTVDKSSSTAYMELNSLTSEDSAVYYCARDGHRWYFDVWGTGTTVTVSS VL: DVVMTQTPLSLPVSLGDQASISCRSSQSLVHSNGNTYLHWYLQKPGQSPKLLIYKVSNRFSGVPDRFSGSGSGTDFTLKINRVEAEDLGVYFCSQSTHVPYTFGGGTQLEIK
(A) t

(Q) Say whether 43F5 (antibody, V domains shown, Mouse monoclonal antibody from hybridoma; also called 43F5vk; 43F5vh) VH: EVQLQQSGPELVKPGASVKISCRASGYSFTGYYMNWVKQSPEKSLEWIGEIIPTTGGTSYNQKFKAKATLTVDKSSSTAYMQLKSLTSEDSAVYYCARESGGFYWYFDVWGTGTTVTVSS VL: DVVMTQSPLSLPVSLGDQASISCRSSQSLVHSNGNTYLHWYLLKPGQSPKLLIYKVSNRFSGVPDRFSGSGSGTDFTLKISRVEAEDLGVYFCSQSTHVPYTFGGGTKLEIK shows kon of 200000 M⁻¹ s⁻¹ or more.
(A) f

(Q) Would you say 73H10 (antibody, V domains shown, Mouse monoclonal antibody from hybridoma; also called 73H10Vk; 73H10VH) VH: EVQLQQSGPELVKPGASVKMSCKASGYTFTRYVMHWVKQKPGQGLEWIGYINPYNDVTKYNEKFKGKATLTSDRSSSTAYMKLSSLTSEDSAVYYCARNWDVPYWGQGTLITVSA VL: DIQMTQSPVFLSASVGETVTITCRASENIDSYLAWYQQKQGKSPQLLVFAARNLADGVPSRFSGSGSGTQYSLKINRMQSEDVARYYCQHYYSTPFTFGSGTKLEIE shows kon at minimum 200000 M⁻¹ s⁻¹?
(A) f

(Q) Say whether 31H9 (antibody, V domains shown, Mouse monoclonal antibody from hybridoma; also called 31H9vk; 31H9vh) VH: EVQLQQSGPELVKPGASVKMSCKASGYTFTRYLMHWVKQKPGQGLEWIGYINPYNDGTNYNEKFKGKATLTSDKSSSTAYMELSSLTSEDSAVYYCSLNWDYAYWGQGTLVTVSA VL: DIVMTQSPATLSVTPGDRVSLSCRASQSISDYLHWYQQKSHESPRLLIKYASQSISGIPSRFSGSGSGSDFTLSINSVEPEDVGVYYCQNGHSFPYTFGGGTKLEIK shows kon of 200000 M⁻¹ s⁻¹ or more.
(A) t

(Q) kon >= 200000 M⁻¹ s⁻¹ for 34D9 (antibody, V domains shown, Mouse monoclonal antibody from hybridoma; also called 34D9Vk; 34D9VH7) VH: EVQLQQSGPELVKPGASVKIPCKASGYTFTDYNMDWVKKSHGKSLEWIGDINPHNGGTIYNQKFKGKATLTVDKSSSTAHMELRSLTSEDTAVYYCARNYYGSSYGWYFDVWGTGTTVTVSS VL: DIMMTQSHKFMSTSVGDRVSITCKASQDVGNAVVWYQQKPGQSPKLLIYWASTRHIGVPDRFTGSGSGTDFTLTITNVQSEDLADYFCQQYSSYLTFGAGTKLELK ?
(A) f

(Q) Hi team, for 26F7 (antibody, V domains shown, Mouse monoclonal antibody from hybridoma; also called 26F7Vk; 26F7VH) VH: EVQLQQSGPELVKPGASVKISCKASGYTFTDYYMNWVRQSHGESLEWIGDFNHNNDVITYNPKFKGKVTLTVEKSSTTAYMELRSLSSEDSAVYYCARGLRGYYAMDYWGQGTSVTVSS VL: DIVLTQSPASLAVSLGQRATISCRASKSVRFSDYFYMHWYQQKPGQPPKLLIYLASNLESGVPARFSGSGSGTDFTLNIHPVEEEDAATYYCQNSRELPYTFGGGTKLEIK , is the recorded kon at or above 200000 M⁻¹ s⁻¹?
(A) t
